Cited source for all entries: patent US20090156577A1

Test system: pathogenic bacteria
Test: MIC by microdilution broth method (NCCLS M7-A4), in vitro antibacterial activity
Assay type: cell-based
Conditions: Staphylococcus aureus, Organism A: Staphylococcus aureus OC4172; read-out: MIC
MIC for assorted compounds
Your answer is read as mg/L, so omit the unit and give the number.

A selection of reference data follows.
CN(CC(F)=C1CCN(c2c(F)cc3c(=O)c(C(=O)O)cn(C4CC4)c3c2OC(F)F)CC1)Cc1ccccc1 = 1
C/C(CN)=C1\CCCN(c2nc3c(cc2F)c(=O)c(C(=O)O)cn3C2CC2)C1.O=C(O)C(F)(F)F = 0.25

q: Quick one: MIC of NC/C=C1\CCCN(c2cc3c(cc2F)c(=O)c(C(=O)O)cn3C2CC2)C1 ?
a: 1

q: And for NCC(F)=C1CN(c2nc3c(cc2F)c(=O)c(C(=O)O)cn3C2CC2)C1 ?
a: 0.06

q: And for COc1c(N2CCC(=C(Cl)CNC(=O)CN)CC2)c(F)cc2c(=O)c(C(=O)O)cn(C3CC3)c12.O=C(O)C(F)(F)F ?
a: 0.12

q: And for NCCNCC(Cl)=C1CCN(c2nc3c(cc2F)c(=O)c(C(=O)O)cn3C2CC2)CC1.O=C(O)C(F)(F)F ?
a: 0.5

q: And for COc1c(N2CCC(=C(Cl)CN3CCOCC3)CC2)c(F)cc2c(=O)c(C(=O)O)cn(C3CC3)c12 ?
a: 0.12
